Target: High mobility group protein B1 (Homo sapiens, UniProt P09429)
Sequence (P09429 whole entry): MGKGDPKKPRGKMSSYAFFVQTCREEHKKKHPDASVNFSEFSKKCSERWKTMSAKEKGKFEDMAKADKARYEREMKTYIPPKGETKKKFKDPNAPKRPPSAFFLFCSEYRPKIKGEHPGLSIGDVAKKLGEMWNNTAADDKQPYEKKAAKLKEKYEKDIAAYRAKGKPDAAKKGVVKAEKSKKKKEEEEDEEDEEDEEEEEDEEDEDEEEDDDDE
Experiment: Binding affinity to recombinant HMGB1 box A (unknown origin)
pKd: −log10 of the molar value.
readout-label: pKd

>>> df
                           molecule  readout_label  endpoint_result
0  O=C(O)c1ccccc1O [SALICYLIC ACID]            pKd     5.00 to 6.00

// provenance: ChEMBL document CHEMBL4118100
